All figures here come from patent US11701364B2.

# SYSTEM_TESTED: STING (Stimulator of Interferon Genes) (Homo sapiens, UniProt Q86WV6, G230A/H232R/R293Q/R71H)
# Construct: host or cells: THP-1-Lucia ISG cells (human monocytic line)
# Sequence (Q86WV6 whole entry R71H/G230A/H232R/R293Q): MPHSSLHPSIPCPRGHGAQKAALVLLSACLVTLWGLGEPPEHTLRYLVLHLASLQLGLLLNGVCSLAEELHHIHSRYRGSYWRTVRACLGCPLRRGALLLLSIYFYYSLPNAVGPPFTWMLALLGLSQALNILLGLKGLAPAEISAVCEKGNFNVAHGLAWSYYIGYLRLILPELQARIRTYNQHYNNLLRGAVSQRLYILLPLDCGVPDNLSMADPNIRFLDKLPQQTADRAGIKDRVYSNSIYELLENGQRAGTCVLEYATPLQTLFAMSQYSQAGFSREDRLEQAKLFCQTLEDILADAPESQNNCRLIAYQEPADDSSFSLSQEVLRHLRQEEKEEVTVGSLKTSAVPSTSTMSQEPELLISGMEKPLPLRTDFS
# TEST_METHOD_NOTES: ISG-LUC activation assay (ISRE-Luciferase assay in THP-1 Lucia ISG reporter cells)
# Assay type: cell-based
# CONDITIONS_USED: THP-1 Lucia ISG cells, 24 hours, luciferase reporter; read-out: ISG-LUC activation assay (EC50)
READOUT_NAME: pEC50
Reminder that pEC50 means the negative base-10 logarithm of the concentration expressed in mol/L.

Below: 3 molecules and their reported pEC50.
- MOLECULE: "O=c1oc(-c2ccc(-n3ccnc3)nn2)nc2cc(F)c(F)cc12 [Compound 29]"
  pEC50: 6.85
- MOLECULE: "COC(=O)c1cc(F)ccc1NC(=O)c1ccc(-n2ccnc2)nn1 [Compound 13]"
  pEC50: 6.60
- MOLECULE: "COC(=O)c1cnccc1NC(=O)c1ccc(-n2ccnc2)nn1 [Compound 108]"
  pEC50: 5.48

Bench note: what pEC50 did CCOC(=O)C1=C(NC(=O)c2ccc(-n3ccnc3)nn2)C[C@@H](C)O[C@H]1C [Compound 135] show?
4.91

Item COC(=O)c1cc(OC(F)(F)F)ccc1NC(=O)c1ccc(-n2ccnc2)nn1 [Compound 76] has what recorded pEC50?
6.24

Quick one: pEC50 of COC(=O)c1cc(C)c(C)cc1NC(=O)c1ccc(-n2ccnc2)nn1 [Compound 11] ?
6.99

Fill in: pEC50 of CCOC(=O)C1=C(NC(=O)c2ccc(-n3ccnc3)nn2)CCOC1 [Compound 128] is ___
5.36

What measured pEC50 goes with CCOC(=O)c1c(F)ccc(F)c1NC(=O)c1ccc(-n2ccnc2)nn1 [Compound 143] ?
5.01

Given the molecule NC(=O)c1cc(F)c(F)cc1NC(=O)c1ccc(-n2ccnc2)nn1 [Compound 63] , what is its reported pEC50?
5.58

* * *

# SYSTEM_TESTED: STING (Stimulator of Interferon Genes) (Homo sapiens, UniProt Q86WV6, G230A/H232R/R293Q/R71H)
# Construct: host or cells: THP-1-Lucia ISG cells (human monocytic line)
# TEST_METHOD_NOTES: ISG-LUC activation assay (ISRE-Luciferase assay in THP-1 Lucia ISG reporter cells)
# Format: cell-based
# CONDITIONS_USED: primary assay, human THP-1 IRF-inducible reporter; read-out: EC50
READOUT_NAME: EC50

Endpoint output: EC50 of O=C(Nc1ccc(Br)cc1C(O)(C(F)(F)F)C(F)(F)F)c1ccc(-n2ccnc2)nn1 . Value?
~1000 nM

* * *

# SYSTEM_TESTED: STING (Stimulator of Interferon Genes) (Homo sapiens, UniProt Q86WV6, G230A/H232R/R293Q/R71H)
# Construct: host or cells: THP-1-Lucia ISG cells (human monocytic line)
# TEST_METHOD_NOTES: ISG-LUC activation assay (ISRE-Luciferase assay in THP-1 Lucia ISG reporter cells)
# Format: cell-based
# CONDITIONS_USED: THP-1 Lucia ISG cells, 24 hours, luciferase reporter; read-out: ISG-LUC activation assay (EC50)
READOUT_NAME: pEC50
Reminder that pEC50 is minus the log10 of a molar concentration.

- STRUCTURE_AS_SMILES: "O=C(Nc1ccccc1C(=O)OC1CCC1)c1ccc(-n2ccnc2)nn1"
  pEC50: 5.68
- STRUCTURE_AS_SMILES: "COC(=O)c1c(Cl)cc(F)cc1NC(=O)c1ccc(-n2ccnc2)nn1"
  pEC50: 4.99
- STRUCTURE_AS_SMILES: "COC(=O)c1ccc(C2CC2)cc1NC(=O)c1ccc(-n2ccnc2)nn1"
  pEC50: 6.69
- STRUCTURE_AS_SMILES: "CCOC(=O)c1c(F)cc(F)c(F)c1NC(=O)c1ccc(-n2ccnc2)nn1"
  pEC50: 5.43
- STRUCTURE_AS_SMILES: "Cc1cc(NC(=O)c2ccc(-n3ccnc3)nn2)c(C(=O)O)cc1C"
  pEC50: 5.14
- STRUCTURE_AS_SMILES: "Cc1ccc(C(=O)OC(C)C)c(NC(=O)c2ccc(-n3ccnc3)nn2)c1"
  pEC50: 6.29
- STRUCTURE_AS_SMILES: "O=c1oc(-c2ccc(-n3ccnc3)nn2)nc2cc3c(cc12)OCCO3"
  pEC50: 5.60
- STRUCTURE_AS_SMILES: "COC(=O)c1cc(C2CC2)ccc1NC(=O)c1ccc(-n2ccnc2)nn1"
  pEC50: 6.45

From here, focus on the item given below.
// lookup pEC50 for COC(=O)c1ncccc1NC(=O)c1ccc(-n2ccnc2)nn1
5.91

* * *

# SYSTEM_TESTED: STING (Stimulator of Interferon Genes) (Homo sapiens, UniProt Q86WV6, G230A/H232R/R293Q/R71H)
# Construct: host or cells: THP-1-Lucia ISG cells (human monocytic line)
# TEST_METHOD_NOTES: ISG-LUC activation assay (ISRE-Luciferase assay in THP-1 Lucia ISG reporter cells)
# Assay type: cell-based
# CONDITIONS_USED: THP-1 Lucia ISG cells, 24 hours, luciferase reporter; read-out: ISG-LUC activation assay (EC50)
READOUT_NAME: EC50

Some solved cases for reference:
- STRUCTURE_AS_SMILES: "COC(=O)c1cc2[nH]ncc2cc1NC(=O)c1ccc(-n2ccnc2)nn1"
  EC50: "~2.57 µM"
- STRUCTURE_AS_SMILES: "O=C(Nc1ccc(C2CC2)cc1C(=O)O)c1ccc(-n2ccnc2)nn1"
  EC50: "~16.6 µM"
- STRUCTURE_AS_SMILES: "NC(=O)c1cc(Cl)c(Cl)cc1NC(=O)c1ccc(-n2ccnc2)nn1"
  EC50: "> 50 µM"
- STRUCTURE_AS_SMILES: "Cc1noc(-c2ccccc2NC(=O)c2ccc(-n3ccnc3)nn2)n1"
  EC50: "> 50 µM"
- STRUCTURE_AS_SMILES: "O=c1oc(-c2ccc(-n3ccnc3)nn2)nc2cc3c(cc12)OC(F)(F)O3"
  EC50: "> 50 µM"

Value lookup for EC50; key = COC(=O)c1ccc(C(=O)OC)c(NC(=O)c2ccc(-n3ccnc3)nn2)c1
> 20 µM

Query (compound): O=C(Nc1cc2ccccc2nc1C(=O)O)c1ccc(-n2ccnc2)nn1 ; field requested: EC50
~10.4 µM

* * *

# SYSTEM_TESTED: STING (Stimulator of Interferon Genes) (Homo sapiens, UniProt Q86WV6, G230A/H232R/R293Q/R71H)
# Construct: host or cells: THP-1-Lucia ISG cells (human monocytic line)
# TEST_METHOD_NOTES: ISG-LUC activation assay (ISRE-Luciferase assay in THP-1 Lucia ISG reporter cells)
# Assay type: cell-based
# CONDITIONS_USED: THP-1 Lucia ISG cells, 24 hours, luciferase reporter; read-out: ISG-LUC activation assay (EC50)
Recorded EC50 values for a group of molecules are listed next.

Before answering, review these 3 worked examples.
- STRUCTURE_AS_SMILES: "COC(=O)c1cc(O)c(F)cc1NC(=O)c1ccc(-n2ccnc2)nn1"
  EC50: "> 50 µM"
- STRUCTURE_AS_SMILES: "COC(=O)c1ccccc1NC(=O)c1ccc(-n2cnc(C)c2)nn1"
  EC50: "> 20 µM"
- STRUCTURE_AS_SMILES: "COC(=O)c1cc(Cl)cc(C)c1NC(=O)c1ccc(-n2ccnc2)nn1"
  EC50: "~2.49 µM"

Now, please, on to the next molecule.
Tell me the measured EC50 of Cc1cc2c(=O)oc(-c3ccc(-n4ccnc4)nn3)nc2cc1F , please.
< 0.0195 µM

* * *

# SYSTEM_TESTED: STING (Stimulator of Interferon Genes) (Homo sapiens, UniProt Q86WV6, G230A/H232R/R293Q/R71H)
# Construct: host or cells: THP-1-Lucia ISG cells (human monocytic line)
# TEST_METHOD_NOTES: ISG-LUC activation assay (ISRE-Luciferase assay in THP-1 Lucia ISG reporter cells)
# Type: cell-based
# CONDITIONS_USED: THP-1 Lucia ISG cells, 24 hours, luciferase reporter; read-out: ISG-LUC activation assay (EC50)
Rule: measured EC50 below 200 nM gets Condition met; anything equal to or greater than 200 nM gets Condition not met.

Some entries whose results are on file:
- MOLECULE: "CCCc1ccc(NC(=O)c2ccc(-n3ccnc3)nn2)c(C(=O)O)c1 [Compound 171]"
  CLASS_ASSIGNMENT: "Condition not met"
- MOLECULE: "COC(=O)c1ccc(F)c(C)c1NC(=O)c1ccc(-n2ccnc2)nn1 [Compound 2]"
  CLASS_ASSIGNMENT: "Condition not met"
- MOLECULE: "O=C(Nc1ccc(Br)cc1C(O)(C(F)(F)F)C(F)(F)F)c1ccc(-n2ccnc2)nn1 [Compound 164]"
  CLASS_ASSIGNMENT: "Condition not met"
- MOLECULE: "N#Cc1ccc2c(=O)oc(-c3ccc(-n4ccnc4)nn3)nc2c1 [Compound 37]"
  CLASS_ASSIGNMENT: "Condition met"
- MOLECULE: "COC(=O)c1cc(F)c(C)cc1NC(=O)c1ccc(-n2ccnc2)nn1 [Compound 21]"
  CLASS_ASSIGNMENT: "Condition met"
- MOLECULE: "COC(=O)c1cc2c(cc1NC(=O)c1ccc(-n3ccnc3)nn1)CCCC2 [Compound 114]"
  CLASS_ASSIGNMENT: "Condition not met"
- MOLECULE: "COc1ccc2c(=O)oc(-c3ccc(-n4ccnc4)nn3)nc2c1 [Compound 38]"
  CLASS_ASSIGNMENT: "Condition not met"
- MOLECULE: "O=C(Nc1ccc2ccccc2c1C(O)(C(F)(F)F)C(F)(F)F)c1ccc(-n2ccnc2)nn1 [Compound 121]"
  CLASS_ASSIGNMENT: "Condition not met"

Now look at this entry.
Check if EC50 falls below 200 nM for COC(=O)c1nc(C2CC2)c(F)cc1NC(=O)c1ccc(-n2ccnc2)nn1 [Compound 145] .
Condition not met
